Entry source: PubChem BioAssay

Quick reference for composite z-score among some compounds
- System: Chordin-like protein 2 (CHRDL2)
- PROTOCOL DETAILS: CHRDL2 small-molecule binders, primary screen, biochemical, small-molecule microarray, 635 nm fluorescence (AID 1126);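 also: printed compound slides probed with Chrdl2 protein at 4 µg/mL for 1 h at 4 C; score merges 667 nm emission intensity with signal to noise over three replicate slides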
- RUN CONDITIONS: small-molecule microarray binding, fluorescence 635 nm; higher = more signal
VALUE TYPE: composite z-score

• CC(CCN1CCc2nc(-c3ccccc3)c(-c3ccccc3)cc2C1)=NO[C@@H](C)c1cn([C@H](CO)Cc2ccccc2)nn1 = 0.0808
• CS(=O)(=O)CCOC(=O)C1=CC(CCCO)=CC(c2cccs2)N(Cc2cccc(OC(F)(F)F)c2)C=C1C(=O)OCCS(C)(=O)=O (stereo unspecified) = -0.607
• CCOC(=O)[C@H](Cc1ccccc1)NC(=O)CCC1CC(OC(=O)NCc2ccc3c(c2)OCO3)CC2(CCCC(COC(=O)NCC(c3ccccc3)c3ccccc3)O2)O1 (stereo partly specified) = 0.226
• CO[C@H]1COC(=O)[C@@H]2CCCN2C(=O)CC=C[C@@H](C)[C@H](OC)COC(=O)CC=C[C@@H]1C = 1.38
• CCN1C(=O)[C@H]2[C@H]3[C@H](O)[C@H](O)CC(=NOC[C@@H](C)[C@H](OCc4ccccc4)C(C)C)[C@@H]3CC[C@H]2C1=O = -0.13
• CCCC[C@H]1OB(O)C[C@H]2C1=C(C)C[C@H]1C(=O)N(C)C(=O)[C@H]12 = 0.311
• CC(C)=NOCc1ccc(-c2cc(-c3ccccc3)no2)cc1 = 0.14
• COCCNC(=O)OCC1CCCC2(CC(OC(=O)NCCc3ccc(F)cc3)CC(CCC(=O)N[C@@H](C)C(=O)OC)O2)O1 (stereo partly specified) = 0.581
• CN(C)C(=O)[C@@]1(Cc2ccccc2)N=C(c2ccc(OCCCO)cc2)O[C@H]1c1ccccc1CN=[N+]=[N-] = -0.25
• C=COC[C@H]1CN2[C@@H](CC[C@@H](C)[C@@H]2c2ccc(Br)cc2)C(=O)O1 = 0.664
• CC(C)C[C@@H]1NC(=O)[C@H]2C[C@@H](C(=O)O)[C@@H](c3ccc(O)cc3)N2C1=O = 0.51
• COc1ccc(O[C@H]2C=C[C@@H](c3ccccc3)O[C@@H]2COC(=O)CCC(C)=NOC(C)CN2CCCCc3nc(C)c(C)cc32)cc1 (stereo partly specified) = -0.101
• CC(=O)OC[C@H]1O[C@H](C#CCCCc2ccccc2)C=C[C@@H]1OC(C)=O = 0.192
• CCc1cc2c(nc1CC)CCN(CCC(C)=NO[C@@H](C)c1cc(-c3c(C)cc(C)cc3C)no1)C2 = -0.121
• CCN1C(=O)[C@H]2[C@H]3[C@H](O)[C@H](O)CC(=NOCc4ccccc4)[C@H]3CC[C@H]2C1=O = 0.248
• CO[C@@H]1COC(=O)[C@H](C)NC(=O)[C@@H](C)COC(=O)CCC[C@H]1C = 0.777
• CC(C)(C)N1C(=O)[C@H]2[C@H]3[C@H](O)[C@H](O)CC(=NOCc4ccccc4)[C@@H]3CC[C@H]2C1=O = 0.831
• CC(=O)OC[C@H]1O[C@H](CC=NOC[C@@H](C)[C@H](OCc2ccccc2)C(C)C)C=C[C@@H]1OC(C)=O = 0.186
• COC(=O)[C@H](C)NC(=O)CCC1CC(OC(=O)NCCc2ccc(F)cc2)CC2(CCCC(COC(=O)NCCc3ccc(Cl)cc3)O2)O1 (stereo partly specified) = 1.09
• O=C1[C@H]2[C@H]3[C@H](O)[C@H](O)CC(=NO[C@@H]4O[C@H](CO)[C@@H](O)[C@H](O)[C@H]4O)[C@H]3CC[C@H]2C(=O)N1Cc1ccc2c(c1)OCO2 = -0.575
• CCN1C(=O)[C@H]2[C@H]3[C@H](O)C=CC(=O)[C@@H]3CC[C@H]2C1=O = 0.587
• CCCCCN1CC=CC23O[C@@H]4C=CCOC(=O)[C@@H]4[C@H]2C(=O)N(CCCCCCO)[C@@H]3C1=O (stereo partly specified) = -1.21
• CO[C@@H]1COC(=O)CC=C[C@@H](C)[C@@H]2C=C[C@@H](O)[C@@H](COC(=O)CC=C[C@H]1C)O2 = 1.38
• COC(=O)C1=CCC(c2cccc(Cl)c2)O1 (stereo unspecified) = -0.667
• O=C1NC(=O)C2C1C=CC(C(O)Cc1ccccc1)N2Nc1ccccn1 (stereo unspecified) = 0.313
• C[C@@H]1C=CCC(=O)OC[C@H](C)C(=O)N[C@@H](C)C(=O)OC1 = 0.71
• O=C1[C@H]2[C@H]3[C@H](O)[C@H](O)CC(=NO[C@@H]4O[C@H](CO)[C@@H](O)[C@H](O)[C@H]4O)[C@H]3CC[C@H]2C(=O)N1C1CCCCC1 = -0.298
• CCOC(=O)NN=C1C[C@@H](O)[C@@H](O)[C@@H]2[C@@H]3C(=O)N(C[C@@H]4CCCO4)C(=O)[C@@H]3CC[C@@H]12 = 0.0214
• C=CCN1C(=O)[C@]2(O[C@H](CCn3cc(CCO)nn3)[C@@H]([Si](C)(C)c3ccc(OC)cc3)[C@@H]2C)c2cc(N3CCOC3=O)ccc21 = -0.34
• O=C1[C@H]2[C@H]3[C@H](O)[C@H](O)CC(=NOCc4ccccc4)[C@H]3CC[C@H]2C(=O)N1c1cccc(Oc2ccccc2)c1 = -0.0086
• COC(=O)CC=C[C@H](C)[C@H](CO)NS(=O)(=O)c1ccc(C)cc1 = 0.91
